Where do the numbers come from? From paper PMC10893631.

- Test system: OVCAR-5
- assay-comment: NCI SRB growth inhibition (single dose 10 µM / five-dose)
- Type: cell-based, human
- condition: Homo sapiens; OVCAR-5 (Ovarian cancer), 10 µM; read-out: GI%
measured-endpoint: inhibition at 10 µM

>>> experimental_result("COc1ccc(-c2nc3cc(C(=O)NN=Cc4ccc(OC)c(O)c4)ccc3[nH]2)cc1 [8l]")
"< 5%"
>>> experimental_result("COc1ccc(-c2nc3cc(C(=O)NN=Cc4cccc(OC)c4O)ccc3[nH]2)cc1 [8k]")
"69.5%"
>>> experimental_result("COc1ccc(OC)c(C=NNC(=O)c2ccc3[nH]c(-c4ccccc4)nc3c2)c1 [8f]")
"< 5%"
>>> experimental_result("COc1cc(C=NNC(=O)c2ccc3[nH]c(-c4ccccc4)nc3c2)cc(OC)c1OC [8g]")
"< 5%"
>>> experimental_result("COc1ccc(-c2nc3cc(C(=O)NN=Cc4cccc(O)c4)ccc3[nH]2)cc1 [8i]")
"< 5%"
>>> experimental_result("COc1cccc(C=NNC(=O)c2ccc3[nH]c(-c4ccccc4)nc3c2)c1O [8d]")
"63.2%"
>>> experimental_result("COc1cccc(C=NNC(=O)c2ccc3[nH]c(-c4ccc(Cl)cc4)nc3c2)c1O [8r]")
"> 100%"
>>> experimental_result("COc1ccc(C=NNC(=O)c2ccc3[nH]c(-c4ccccc4)nc3c2)cc1O [8e]")
"< 5%"
>>> experimental_result("COc1ccc(-c2nc3cc(C(=O)NN=Cc4cc(OC)ccc4OC)ccc3[nH]2)cc1 [8m]")
"< 5%"
>>> experimental_result("COc1ccc(OC)c(C=NNC(=O)c2ccc3[nH]c(-c4ccc(Cl)cc4)nc3c2)c1 [8t]")
"< 5%"

Memo: COc1cccc(C=NNC(=O)c2ccc3[nH]c(-c4ccccc4)nc3c2)c1 [8c] , reported inhibition at 10 µM: < 5%

Memo: COc1ccc(-c2nc3cc(C(=O)NN=Cc4cc(OC)c(OC)c(OC)c4)ccc3[nH]2)cc1 [8n] , reported inhibition at 10 µM: < 5%

Memo: O=C(NN=Cc1ccccc1O)c1ccc2[nH]c(-c3ccc(Cl)cc3)nc2c1 [8o] , reported inhibition at 10 µM: 55.9%

Memo: O=C(NN=Cc1cccc(O)c1)c1ccc2[nH]c(-c3ccccc3)nc2c1 [8b] , reported inhibition at 10 µM: < 5%

Memo: COc1cc(C=NNC(=O)c2ccc3[nH]c(-c4ccc(Cl)cc4)nc3c2)cc(OC)c1OC [8u] , reported inhibition at 10 µM: 37.4%

Memo: COc1ccc(-c2nc3cc(C(=O)NN=Cc4ccccc4O)ccc3[nH]2)cc1 [8h] , reported inhibition at 10 µM: > 100%
